methodDescription: Effect on nerve cell survival and toxicity in culture (dissociated neonatal rat cerebellum)
Format: cell-based
experimentalConditions: rat, cerebellar nerve cells, TD50 (concentration at which 50% of the cells died)
Recorded CC50 at 24 h, one value per entry.
parameterMeasured: CC50 at 24 h (µM)

>>> df
                                   compound  resultunit  quantitativeresult
0  Clc1ccc2c(c1)Nc1ccccc1S2 [2-Cl-phenothiazine]          µM                   5
1           C1C2CC3CC1CC(C2)C3 [Adamantane]          µM                1000
2                       NCCCCN [Putrescine]          µM                 300
3  CNC1(C)C2CCC(C2)C1(C)C (stereo not shown) [Mecamylamine]          µM                 500

====

methodDescription: Effect on nerve cell survival and toxicity in culture (dissociated neonatal rat cerebellum)
Format: cell-based
experimentalConditions: rat, cerebellar nerve cells
parameterMeasured: CC50 at 24 h

>>> df
     samplesmiles  parametermeasured  result
0  NCCCNCCCCNCCCN       CC50 at 24 h    2 µM

====

Recorded Percent Protection, one value per entry.
System: nerve cell survival after NMDA neurotoxic challenge
methodDescription: Reversal of N-methyl-D-aspartate induced cell death in culture
experimentalConditions: 50 μM, after NMDA; survival minus NMDA effect
parameterMeasured: Percent Protection (%)

>>> df
                              samplesmiles  quantitativeresult
0  Cl.Cl.NCCCCNCCCN1c2ccccc2Sc2ccc(Cl)cc21                   5
1                       C1C2CC3CC1CC(C2)C3                  20
2                             N=C(N)NCCCCN                  51
3                 Clc1ccc2c(c1)Nc1ccccc1S2                  32

====

methodDescription: Effect on nerve cell survival and toxicity in culture (dissociated neonatal rat cerebellum)
Type: cell-based
experimentalConditions: rat, cerebellar nerve cells; 24 hours, 3-day-old cultures; read-out: TD50 (concentration at which 50% of the cells died)
Counter-ions that a name gives are not always drawn.
Recorded CC50 at 24 h, one value per entry.
parameterMeasured: CC50 at 24 h (µM)

                                   compound  parametermeasured  quantitativeresult
0                                NCCCCNCCCN       CC50 at 24 h                   2
1                              N=C(N)NCCCCN       CC50 at 24 h                 500
2  NCCCNCCCCNCCCN1c2ccccc2Sc2ccc(Cl)cc21 [G103, HCl]       CC50 at 24 h                   2
3                              C1CN2CCC1CC2       CC50 at 24 h                 100

====

Recorded responders at 10 mg/kg, one value per entry.
System: pyramidal neurons of the CA1 layer of the anterior hippocampus
methodDescription: animal or person
Format: in vivo
experimentalConditions: Meriones unguiculatus, Pyramidal neuron, ip, 336 h, read-out: Percent Protection
Experimental: Male mongolian gerbils, aged 2.5-5 months, housed 4-8 in a cage, are supplied freely with food and water and maintained at 24° C. with a 12 hour day/night cycle. For surgery, the animals are anesthetized with halothane (1.5% in 100% O2) and the common carotid arteries exposed bilaterally through a midline ventral neck incision. Each artery is clamped for 5 minutes with aneurysm clips to produce global brain ischemia. The anesthesia is discontinued upon clamping. […]
parameterMeasured: responders at 10 mg/kg

>>> print(df.to_string())
                                   compound                           systemundertest       parametermeasured  result
0                              C1CN2CCC1CC2  pyramidal neurons of the CA1 layer of the anterior hippocampus  responders at 10 mg/kg     15%
1                                NCCCCNCCCN  pyramidal neurons of the CA1 layer of the anterior hippocampus  responders at 10 mg/kg     50%
2                            NCCCNCCCCNCCCN  pyramidal neurons of the CA1 layer of the anterior hippocampus  responders at 10 mg/kg     65%
3                              N=C(N)NCCCCN  pyramidal neurons of the CA1 layer of the anterior hippocampus  responders at 10 mg/kg     20%
4                                    NCCCCN  pyramidal neurons of the CA1 layer of the anterior hippocampus  responders at 10 mg/kg     35%
5  CNC1(C)C2CCC(C2)C1(C)C (stereo not shown)  pyramidal neurons of the CA1 layer of the anterior hippocampus  responders at 10 mg/kg     40%
6                  Clc1ccc2c(c1)Nc1ccccc1S2  pyramidal neurons of the CA1 layer of the anterior hippocampus  responders at 10 mg/kg     65%

Origin of the recorded values: patent US5677349A
